In this section we review reported pest or weed control at 560 g/ha values for a set of compounds.
- Test system: Chenopodium album (CHEAL), common lambsquarters
- method.description: Postemergence herbicide evaluation, growth of Chenopodium album (CHEAL)
- Assay type: in vivo
- condition.context: Chenopodium album, post-emergence, 168 h, 560 g ae/ha, 7 DAA, percent reduction in plant size relative to untreated control; read-out: Ave. CHEAL
Respond with the bare value in %.

# example entries with known answers
[
  {
    "compound": "N/C(Cc1ccccc1)=N\\OC(=O)COc1ccc(Cl)cc1Cl [Compound A17]",
    "value.observed": 68
  },
  {
    "compound": "O=C(COc1ccc(Cl)cc1Cl)NOCc1ccccc1 [Compound D8]",
    "value.observed": 63
  },
  {
    "compound": "N/C(=N\\OC(=O)COc1ccc(Cl)cc1Cl)c1ccc(/C(N)=N/OC(=O)COc2ccc(Cl)cc2Cl)cc1 [Compound B5]",
    "value.observed": 13
  },
  {
    "compound": "C/C(C/C(C)=N/OC(=O)COc1ccc(Cl)cc1Cl)=N\\OC(=O)COc1ccc(Cl)cc1Cl [Compound B6]",
    "value.observed": 70
  },
  {
    "compound": "CS/C(C)=N\\OC(=O)COc1ccc(Cl)cc1Cl [Compound A10]",
    "value.observed": 70
  },
  {
    "compound": "O=C(COc1ccc(Cl)cc1Cl)ON(Cc1ccccc1)Cc1ccccc1 [Compound A14]",
    "value.observed": 58
  }
]

# input Item O=C(COc1ccc(Cl)cc1Cl)ONC(=O)c1ccc(C(=O)NOC(=O)COc2ccc(Cl)cc2Cl)cc1 [Compound B4] has what recorded pest or weed control at 560 g/ha?
# output 63

# input How about this compound: O=C(COc1ccc(Cl)cc1Cl)ON1CCCCC1 [Compound A11]
# output 70

# input How about this compound: O=C(COc1ccc(Cl)cc1Cl)ON1C(=O)c2ccccc2C1=O [Compound A15]
# output 70

Data credit: patent US20260042731A1
